# inhibition of growth at 200 ppm per record follows
Test system: Fusarium culmorum
assay: Antifungal activity against Fusarium culmorum assessed as inhibition of mycelial growth at 200 ppm at 21 +/- 1 degC measured after 5 days
Format: functional
experimentalContext: 120 h, read-out: GI
metricName: inhibition of growth at 200 ppm (%)

>>> datavalue("Cc1cc(NC(=S)c2ccc(O)cc2O)ccc1N1C(=O)c2ccc(Cl)cc2C1=O")
21
>>> datavalue("COC(=O)Nc1nc2ccccc2[nH]1")
81
>>> datavalue("Oc1ccc(C(=S)Nc2cc(C(F)(F)F)cc(C(F)(F)F)c2)c(O)c1")
81
>>> datavalue("Oc1ccc(C(=S)Nc2ccc(N3CCOCC3)cc2)c(O)c1")
21
>>> datavalue("O=C(c1ccccc1)c1ccc(NC(=S)c2ccc(O)cc2O)cc1")
51
>>> datavalue("Oc1ccc(C(=S)Nc2cccc3c2CCCC3)c(O)c1")
81
>>> datavalue("Cc1ccc2sc(-c3ccc(NC(=S)c4ccc(O)cc4O)cc3)nc2c1")
21
>>> datavalue("CCCN(CCOc1c(Cl)cc(Cl)cc1Cl)C(=O)n1ccnc1")
81
>>> datavalue("Oc1ccc(C(=S)N(Cc2ccccc2)c2ccccn2)c(O)c1")
21
>>> datavalue("C=C(C)c1ccccc1NC(=S)c1ccc(O)cc1O")
81
>>> datavalue("O=[N+]([O-])c1cc(NC(=S)c2ccc(O)cc2O)ccc1F")
81
